The measured values listed here are drawn from PubChem BioAssay (NCI).

Exercise: for every item that follows, state its recorded growth.
- Tested on: HL-60(TB) leukemia
- ASSAY DETAILS: NCI-60 one-dose screen, 48 h (100 = growth as untreated, 0 = no growth, -100 = all killed)
- DETAILS: 10 µM unless noted
Compounds without any hit were thinned out: in the full panel of roughly 83,000, 20% have a hit.
Your answer is read as %, so omit the unit and give the number.

In plain terms, CSCCC(NC(=O)C(Cl)Cl)C(=O)O (centres undefined) has a documented growth of 98.1

In plain terms, COC(=O)[C@H](CSC)N(C)C(=O)[C@@H]1CSSC[C@@H](NC(=O)c2nc3ccccc3cc2O)C(=O)NCC(=O)N1C has a documented growth of 0.567

In plain terms, C=CC(=O)Nc1cccc(Oc2nccc(Nc3nnc(-c4ccc(Br)cc4)s3)n2)c1 has a documented growth of 121

In plain terms, CCOC(=O)c1cn2ncnc(Oc3ccc(NC(=O)NCCN(CC)CC)c(Cl)c3)c2c1C has a documented growth of 100

In plain terms, COc1ccc(C(=O)C(Br)C(Br)C(=O)O)cc1 (centres undefined) has a documented growth of 103

In plain terms, CCCCCCCCCCCCCCCCCCOc1ccccc1CC(=O)OCC[N+](C)(C)C has a documented growth of -38

In plain terms, O=C(CCCCNC(=O)c1nc(-c2ccccc2)n(-c2ccccc2)n1)NO has a documented growth of 97

In plain terms, CNC(=O)c1cc(Oc2cccc3nc(NC(=O)Nc4cc(C(F)(F)F)ccc4Cl)ccc23)ccn1 has a documented growth of 103

In plain terms, CC1(C)C(=O)/C(=C\c2ccccn2)C[C@]2(C)[C@H]3CC[C@@H]4[C@@H](C(=O)/C=C/c5ccccn5)CC[C@@]4(C)[C@]3(C)CC[C@@H]12 has a documented growth of -14.4
